System: MV4;11 cells
Test: Cell viability assay (CellTiter-Glo) in MV4;11 cells, alone or with gilteritinib
Assay type: cell-based
Conditions: MV4;11 cells, without gilteritinib, 3 days, CellTiter-Glo; read-out: MV4; 11 IC50
endpoint_name: IC50 (nM)
Answers are plain numbers, in nM.

Can you look up the measured IC50 of O=C1CCC(N2Cc3cc(CNC(=O)C(F)(F)c4ccc(Cl)cc4)ccc3C2=O)C(=O)N1 (stereo not shown) [CC-90009, reference compound] for me? 54

----------
Tested on: MOLM-13 cells
Test: Cell viability assay (CellTiter-Glo) in MOLM-13 cells, alone or with gilteritinib
Type: cell-based
Conditions: Homo sapiens, MOLM-13, 72 h, MOLM-13 cells, with gilteritinib 20 nM, three days, CellTiter-Glo; read-out: MOLM-13 IC50 gilteritinib
pIC50: −log10 of the molar value.
endpoint_name: pIC50

Observe how each entry below is paired with its result.
Can you look up the measured pIC50 of CN1CCN(c2cccc3nc(-c4cnn([C@H]5C[C@H](CCCNc6ccc7c(c6)C(=O)N(C6CCC(=O)NC6=O)C7=O)C5)c4)cnc23)CC1 (stereo partly shown) for me? > 8.00

Can you look up the measured pIC50 of O=C1CCC(N2C(=O)c3ccc(NC[C@H]4C[C@H](n5cc(-c6cccc(NC7COC7)n6)c(C6CC6)n5)C4)cc3C2=O)C(=O)N1 (stereo partly shown) for me? < 6.00

Can you look up the measured pIC50 of Cc1nn([C@H]2C[C@@H](CCCNc3ccc4c(c3)C(=O)N(C3CCC(=O)NC3=O)C4=O)C2)cc1-c1cnc2ccc(N3CCOCC3)cc2n1 (stereo partly shown) for me? > 8.00

Can you look up the measured pIC50 of O=C1CCC(N2Cc3cc(Nc4ccnc(Nc5ccc6c(c5)CC(N5CCC(n7cc(-c8cnc9cccc(Br)c9n8)cn7)CC5)C6)n4)ccc3C2=O)C(=O)N1 (stereo not shown) for me? 6.00 to 7.00

Can you look up the measured pIC50 of O=C1CCC(N2Cc3c(Nc4ccnc(Nc5cccc(C(=O)N6CCN(c7ccccn7)CC6)c5)n4)cccc3C2=O)C(=O)N1 (stereo not shown) for me? 6.00 to 7.00

Fill in pIC50 for each of the 8 compounds listed.
1. N#Cc1ccc2ncc(-c3cnn(CCCCCCNc4ccc5c(c4)C(=O)N(C4CCC(=O)NC4=O)C5=O)c3)nc2c1 (stereo not shown)
2. O=C(CN1CCCC(n2cc(-c3cnc4ccccc4n3)cn2)C1)NCc1ccc2c(c1)C(=O)N(C1CCC(=O)NC1=O)C2=O (stereo not shown)
3. O=C1CCC(N2C(=O)c3ccc(NCCC[C@H]4C[C@H](n5cc(-c6cccc(NC7CCOCC7)n6)cn5)C4)cc3C2=O)C(=O)N1 (stereo partly shown)
4. O=C(CC1CC1n1cc(-c2cnc3ccccc3n2)cn1)NCc1ccc2c(c1)CN(C1CCC(=O)NC1=O)C2=O (stereo not shown)
5. O=C1CCC(N2C(=O)c3ccc(NCCC[C@H]4C[C@H](n5cc(-c6cnc7ccc(N8CCNCC8)cc7n6)cn5)C4)cc3C2=O)C(=O)N1 (stereo partly shown)
6. O=C1CCC(N2C(=O)c3ccc(NCCC[C@H]4C[C@H](n5cc(-c6cc(Cl)ccn6)cn5)C4)cc3C2=O)C(=O)N1 (stereo partly shown)
7. O=C1CCC(N2C(=O)c3ccc(NCCC[C@H]4C[C@H](n5cc(-c6cnc7ccc(C(F)(F)F)cc7n6)cn5)C4)cc3C2=O)C(=O)N1 (stereo partly shown)
8. O=C1CCC(N2Cc3ccc(CCCCCC(=O)N4CCC(n5cc(-c6ccc7ccccc7n6)cn5)CC4)cc3C2=O)C(=O)N1 (stereo not shown)

1: > 8.00; 2: < 6.00; 3: 7.00 to 8.00; 4: 6.00 to 7.00; 5: > 8.00; 6: 7.00 to 8.00; 7: 7.00 to 8.00; 8: 7.00 to 8.00

----------
Tested on: MOLM-13 cells
Test: Cell viability assay (CellTiter-Glo) in MOLM-13 cells, alone or with gilteritinib
Assay type: cell-based
Conditions: Homo sapiens, MOLM-13, 72 h, MOLM-13 cells, compound alone (without gilteritinib), three days, CellTiter-Glo; read-out: MOLM-13 IC50
Could you please report measured IC50 for the items listed next?

API: value(readout=IC50, system=MOLM-13 cells) for record CC(C)n1ccc2cnc(-c3cn([C@H]4C[C@H](CNc5ccc6c(c5)C(=O)N(C5CCC(=O)NC5=O)C6=O)C4)nc3C3CC3)cc21 (stereo partly drawn) 10 to 100 nM

API: value(readout=IC50, system=MOLM-13 cells) for record O=C1CCC(N2Cc3cc(NCc4cccc(N5CCC(n6cc(-c7cnc8ccccc8n7)cn6)CC5)c4)ccc3C2=O)C(=O)N1 (stereo not drawn) > 1000 nM

API: value(readout=IC50, system=MOLM-13 cells) for record O=C1CCC(N2C(=O)c3ccc(NCCCCCCn4cc(-c5cnc6cccc(C(F)(F)F)c6n5)cn4)cc3C2=O)C(=O)N1 (stereo not drawn) 100 to 1000 nM

API: value(readout=IC50, system=MOLM-13 cells) for record O=C1CCC(N2C(=O)c3ccc(NCCC[C@H]4C[C@H](n5cc(-c6cnc7cc(N8CCOCC8)ccc7n6)cn5)C4)cc3C2=O)C(=O)N1 (stereo partly drawn) 10 to 100 nM

API: value(readout=IC50, system=MOLM-13 cells) for record O=C1CCC(N2C(=O)c3ccc(NCCC[C@H]4C[C@H](n5cc(-c6cnccn6)cn5)C4)cc3C2=O)C(=O)N1 (stereo partly drawn) > 1000 nM

Please find the next compound below.
API: value(readout=IC50, system=MOLM-13 cells) for record O=C1CCC(N2C(=O)c3ccc(NC[C@H]4C[C@H](n5cc(-c6cccc(OC7CC7)n6)c(C6CC6)n5)C4)cc3C2=O)C(=O)N1 (stereo partly drawn) 100 to 1000 nM

----------
Could you please report measured IC50 for the items listed next?
Test system: MOLM-13 cells
Test: Cell viability assay (CellTiter-Glo) in MOLM-13 cells, alone or with gilteritinib
Type: cell-based
Details: Homo sapiens, MOLM-13, 72 h, MOLM-13 cells, with gilteritinib 20 nM, three days, CellTiter-Glo; read-out: MOLM-13 IC50 gilteritinib

Can you look up the measured IC50 of O=C1CCC(N2Cc3c(Nc4ccnc(NCC(=O)N5CCC(n6cc(-c7cnc8ccccc8n7)cn6)CC5)n4)cccc3C2=O)C(=O)N1 (stereo not shown) for me? > 1000 nM

Can you look up the measured IC50 of O=C1CCC(N2Cc3c(NC4CCCC(Nc5cccc(N6CCC(c7cccc(Cl)c7)CC6)c5)C4)cccc3C2=O)C(=O)N1 (stereo not shown) for me? > 1000 nM

Can you look up the measured IC50 of O=C1CCC(N2C(=O)c3ccc(NCCCCCCn4cc(-c5cnc6cccc(C7CCNCC7)c6n5)cn4)cc3C2=O)C(=O)N1 (stereo not shown) for me? > 1000 nM

Fill in IC50 for each of the 4 molecules listed.
1. CN1CCN(c2cnn(C3CCN(C(=O)CCCCCNc4ccc5c(c4)C(=O)N(C4CCC(=O)NC4=O)C5=O)CC3)c2)CC1 (stereo not shown)
2. O=C1CCC(N2C(=O)c3ccc(NCCC[C@H]4C[C@H](n5cc(-c6nccc(N7CCOCC7)n6)cn5)C4)cc3C2=O)C(=O)N1 (stereo partly shown)
3. O=C1CCC(N2Cc3ccc(CCCCC(=O)N4CCC(n5cc(-c6ccc7ccccc7n6)cn5)CC4)cc3C2=O)C(=O)N1 (stereo not shown)
4. O=C1CCC(N2C(=O)c3ccc(NCCC[C@H]4C[C@H](n5cc(-c6cccc(=O)[nH]6)cn5)C4)cc3C2=O)C(=O)N1 (stereo partly shown)

1: 10 to 100 nM; 2: 10 to 100 nM; 3: 10 to 100 nM; 4: 100 to 1000 nM

----------
Tested on: MOLM-13 cells
Experiment: Cell viability assay (CellTiter-Glo) in MOLM-13 cells, alone or with gilteritinib
Type: cell-based
Conditions: Homo sapiens, MOLM-13, 72 h, MOLM-13 cells, compound alone (without gilteritinib), three days, CellTiter-Glo; read-out: MOLM-13 IC50
Could you please report measured IC50 for the items listed next?

Observe how each entry below is paired with its result.
API: value(readout=IC50, system=MOLM-13 cells) for record O=C1CCC(N2C(=O)c3ccc(NC[C@H]4C[C@H](n5cc(-c6cnc7ccccc7n6)cn5)C4)cc3C2=O)C(=O)N1 (some centres unmarked) 0.1 to 1 µM

API: value(readout=IC50, system=MOLM-13 cells) for record O=C1CCC(N2C(=O)c3ccc(NC[C@H]4C[C@H](n5cc(-c6ccc(F)cn6)c(C6CC6)n5)C4)cc3C2=O)C(=O)N1 (some centres unmarked) > 1 µM

API: value(readout=IC50, system=MOLM-13 cells) for record O=C1CCC(N2Cc3cc(OCCCCCC(=O)N4CCC(n5cc(-c6cnc7ccccc7n6)cn5)CC4)ccc3C2=O)C(=O)N1 (centres unmarked) > 1 µM

API: value(readout=IC50, system=MOLM-13 cells) for record CN1CCN(c2nccc(-c3cnn([C@H]4C[C@H](CCCNc5ccc6c(c5)C(=O)N(C5CCC(=O)NC5=O)C6=O)C4)c3)n2)CC1 (some centres unmarked) > 1 µM

API: value(readout=IC50, system=MOLM-13 cells) for record O=C1CCC(N2C(=O)c3ccc(NCCC45CC(C(=O)N6CCC(n7cc(-c8cnc9ccccc9n8)cn7)CC6)(C4)C5)cc3C2=O)C(=O)N1 (centres unmarked) 0.1 to 1 µM

Fill in IC50 for each of the 4 compounds listed.
1. O=C1CCC(N2C(=O)c3ccc(OCCCCCCn4cc(-c5cnc6ccccc6n5)cn4)cc3C2=O)C(=O)N1 (centres unmarked)
2. CN(C)c1cccc(-c2cnn([C@H]3C[C@H](CCCNc4ccc5c(c4)C(=O)N(C4CCC(=O)NC4=O)C5=O)C3)c2)n1 (some centres unmarked)
3. CC(C)n1ncc2cnc(-c3cn([C@H]4C[C@H](CNc5ccc6c(c5)C(=O)N(C5CCC(=O)NC5=O)C6=O)C4)nc3C3CC3)cc21 (some centres unmarked)
4. O=C1CCC(N2C(=O)c3ccc(NCCCCCC(=O)N4CCC(n5cc(-c6ccc7cccc(Br)c7n6)cn5)CC4)cc3C2=O)C(=O)N1 (centres unmarked)

1: > 1 µM; 2: > 1 µM; 3: 0.01 to 0.1 µM; 4: > 1 µM

Fill in IC50 for each of the 6 compounds listed.
1. O=C1CCC(N2C(=O)c3ccc(NCCCCCCn4cc(-c5cnc6ccccc6n5)cn4)cc3C2=O)C(=O)N1 (centres unmarked)
2. O=C1CCC(N2C(=O)c3ccc(NC[C@H]4C[C@H](n5ccc(C6CC6)n5)C4)cc3C2=O)C(=O)N1 (some centres unmarked)
3. O=C1CCC(N2Cc3ccc(CCCCCCC(=O)N4CCC(c5cccc(Cl)c5)CC4)cc3C2=O)C(=O)N1 (centres unmarked)
4. O=C1CCC(N2C(=O)c3ccc(NCCC[C@H]4C[C@H](n5cc(-c6cnc7c(C8CCNCC8)cccc7n6)cn5)C4)cc3C2=O)C(=O)N1 (some centres unmarked)
5. COc1ccc2ncc(-c3cnn(CCCCCCNc4ccc5c(c4)C(=O)N(C4CCC(=O)NC4=O)C5=O)c3)nc2c1 (centres unmarked)
6. N#Cc1cccc2nc(-c3cnn([C@H]4C[C@H](CCCNc5ccc6c(c5)C(=O)N(C5CCC(=O)NC5=O)C6=O)C4)c3)cnc12 (some centres unmarked)

1: > 1 µM; 2: 0.01 to 0.1 µM; 3: 0.01 to 0.1 µM; 4: 0.01 to 0.1 µM; 5: 0.1 to 1 µM; 6: 0.1 to 1 µM

Fill in IC50 for each of the 5 compounds listed.
1. O=C1CCC(N2C(=O)c3ccc(NCCCCCCN4CCC(C5CCC(O)CC5)CC4)cc3C2=O)C(=O)N1 (centres unmarked)
2. O=C1CCC(N2C(=O)c3ccc(NCCC[C@H]4C[C@H](n5cc(-c6cnc7ccc(Cl)cc7n6)cn5)C4)cc3C2=O)C(=O)N1 (some centres unmarked)
3. O=C1CCC(N2C(=O)c3ccc(NCCC4CC5(C4)CC(n4cc(-c6cnc7ccccc7n6)cn4)C5)cc3C2=O)C(=O)N1 (centres unmarked)
4. C[C@H]1CN(c2ccc3ncc(-c4cnn([C@H]5C[C@H](CCCNc6ccc7c(c6)C(=O)N(C6CCC(=O)NC6=O)C7=O)C5)c4)nc3c2)CCN1 (some centres unmarked)
5. O=C1CCC(N2C(=O)c3ccc(NCCC[C@H]4C[C@H](n5cc(-c6cnc7ccc(N8CCNC9(CC9)C8)cc7n6)cn5)C4)cc3C2=O)C(=O)N1 (some centres unmarked)

["> 1 µM", "0.1 to 1 µM", "0.01 to 0.1 µM", "0.01 to 0.1 µM", "> 1 µM"]

Fill in IC50 for each of the 3 compounds listed.
1. Cc1nc(-c2cn([C@H]3C[C@H](CCc4ccc5c(c4)C(=O)N(C4CCC(=O)NC4=O)C5=O)C3)nc2C2CC2)ccc1F (some centres unmarked)
2. O=C1CCC(N2C(=O)c3ccc(NCCC[C@H]4C[C@H](n5cc(-c6cnc7c(F)cccc7n6)cn5)C4)cc3C2=O)C(=O)N1 (some centres unmarked)
3. CN1CCN(c2ccc3ncc(-c4cnn([C@H]5C[C@H](CNc6ccc7c(c6)C(=O)N(C6CCC(=O)NC6=O)C7=O)C5)c4)nc3c2)CC1 (some centres unmarked)

["> 1 µM", "0.1 to 1 µM", "0.1 to 1 µM"]

Fill in IC50 for each of the 3 compounds listed.
1. O=C1CCC(N2C(=O)c3ccc(NC[C@H]4C[C@H](n5cc(-c6cccc(N7CCOCC7)n6)cn5)C4)cc3C2=O)C(=O)N1 (some centres unmarked)
2. O=C1CCC(N2C(=O)c3ccc(NC[C@H]4C[C@H](n5cc(-c6cc(Cl)ccn6)c(C6CC6)n5)C4)cc3C2=O)C(=O)N1 (some centres unmarked)
3. O=C1CCC(N2C(=O)c3ccc(NCCC[C@H]4C[C@H](n5cc(C6CCOCC6)cn5)C4)cc3C2=O)C(=O)N1 (some centres unmarked)

["> 1 µM", "0.01 to 0.1 µM", "> 1 µM"]

Numbers sourced from patent US20240050428A1.
